Below, each of the compounds is paired with its reported pIC50 value.
Target: Mu-type opioid receptor (Rattus norvegicus)
Sequence (P33535 whole entry): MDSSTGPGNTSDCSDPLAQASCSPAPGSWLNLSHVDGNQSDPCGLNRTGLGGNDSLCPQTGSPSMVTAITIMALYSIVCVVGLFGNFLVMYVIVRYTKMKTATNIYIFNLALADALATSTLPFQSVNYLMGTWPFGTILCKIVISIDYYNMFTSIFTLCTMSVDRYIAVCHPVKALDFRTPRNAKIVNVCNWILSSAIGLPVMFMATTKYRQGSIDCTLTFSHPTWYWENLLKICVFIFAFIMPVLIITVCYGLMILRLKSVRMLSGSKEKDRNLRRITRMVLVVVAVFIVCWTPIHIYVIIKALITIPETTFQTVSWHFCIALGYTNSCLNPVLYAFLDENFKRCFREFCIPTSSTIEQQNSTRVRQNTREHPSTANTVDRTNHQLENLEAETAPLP
Test: Displacement of [3H]naloxone from mu opioid receptor in rat brain membrane
Where a SMILES comes first, the peptide text is derived from it. [ ]: non-standard residue; d: D form. dNMeA = CN[C@H](C)C(=O)O; Sar = CNCC(=O)O
Remember, pIC50 is on a log scale: it is -log10 of the molar concentration.

Compound	pIC50
C[C@H](C(=O)N[C@@H](Cc1ccccc1)C(=O)N(C)CC(N)=O)N(C)C(=O)[C@@H](N)Cc1ccc(O)cc1 (H-Y[dNMeA]F[Sar]-NH2)	4.55

Please find the next compound below.
pIC50 for `C[C@H](C(=O)N[C@H]1Cc2ccccc2CN(CC(N)=O)C1=O)N1Cc2cc(O)ccc2C[C@H](N)C1=O` ?
4.68
